Assay: collision cross section in nitrogen (drift tube, single-field); higher = larger gas-phase ion size;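 note: chemical standards at 10 µM analysed by drift tube IMS-QTOF MS in about 3.95 torr nitrogen, mean of duplicate injections differing ≤1%, mass error below 10 ppm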
Settings: ion type: [M+H]; ion source: ESI; ion mode: Positive
Structures can show the parent of a compound that is named as a salt.
Readout: collision cross section in nitrogen (Å²)
Number only, in Å²; omit the unit.

Solved cases (2 shown):
> print(dat)
                                   compound  measured.value
1  CCCCc1nc(Cl)c(CO)n1Cc1ccc(-c2ccccc2-c2nnn[nH]2)cc1 [Losartan potassium]           201.2
2  O=C(NC(=O)c1c(F)cccc1F)Nc1cc(Cl)c(Oc2ncc(C(F)(F)F)cc2Cl)c(Cl)c1 [Chlorfluazuron]           221.8

Input: Looking for the measured collision cross section in nitrogen of CCCCCCCCOC(=O)CCCCCCCCC(=O)OCCCCCCCC [Dioctyl sebacate] , can you help?
Output: 224.6

Input: Looking for the measured collision cross section in nitrogen of CC1=NN(c2cccc(S(=O)(=O)O)c2)C(=O)C1 , can you help?
Output: 161.7

Input: Looking for the measured collision cross section in nitrogen of O=C(Nc1ccccc1)c1ccccc1I [Benodanil] , can you help?
Output: 146.3

Input: Looking for the measured collision cross section in nitrogen of COC(=O)C1=C(C)NC(C)=C(C(=O)OCCN(C)Cc2ccccc2)C1c1cccc([N+](=O)[O-])c1 (stereo not drawn) [Nicardipine hydrochloride] , can you help?
Output: 212.6

Input: Looking for the measured collision cross section in nitrogen of O=c1[nH]cc(S(=O)(=O)Cl)c(=O)[nH]1 [2,4-Dioxo-1,2,3,4-tetrahydropyrimidine-5-sulfonyl chloride] , can you help?
Output: 140.8

Input: Looking for the measured collision cross section in nitrogen of C[C@@H]1CCN(C(=O)[C@H](CCCNC(=N)N)NS(=O)(=O)c2cccc3c2NC[C@H](C)C3)[C@@H](C(=O)O)C1 [Argatroban monohydrate] , can you help?
Output: 217
